Tested on: NF-κB
assay-summary: NF-κB-dependent luciferase reporter gene assay, HeLa κB-transformed cells, TPA stimulated
Type: cell-based
assay-setup: Homo sapiens, HeLa, 8 h treatment, TPA 25 ng/ml 2 h after exposure, read-out: NF-κB, IC50 (concentration at which the compound halved the NF-κB activity)
test-readout: pIC50
Would you please state pIC50, meaning minus log10 of the concentration in mol/L, as a bare number?

Task: I have this compound here, CC(C)(C)OC(=O)N[C@@H](CS[C@H]1CC(=O)C(C)(C)C1OC(=O)C(C)(C)C)C(=O)O (stereo in doubt) , and I need its recorded pIC50.
Output: 4.66

Task: Please look up its pIC50: `CC(=O)Nc1ccc(S[C@H]2CC(=O)C[C@@H]2O[Si](C)(C)C(C)(C)C)cc1`
Output: 4.51

====

Test system: uninfected 37RC cells
assay-setup: monkey
Would you mind telling me the reported TD100 (dose or concentration at which the compound was 100% toxic to uninfected cells) of each entry?

Task: Look up TD100 (dose or concentration at which the compound was 100% toxic to uninfected cells): CC(C)(C)C(=O)O[C@H]1[C@H](Sc2ccc3ccccc3c2)CC(=O)C1(C)C (stereo in doubt)
Output: 50 µM

Task: TD100 (dose or concentration at which the compound was 100% toxic to uninfected cells) lookup needed for O=C1C=CCC1 [CTC-1, cyclopent-2-en-1-one, reference compound] , thanks.
Output: >500 µM

Task: Reported TD100 (dose or concentration at which the compound was 100% toxic to uninfected cells) for COC(=O)[C@H](CSC1CCC(=O)C1)NC(=O)OC(C)(C)C (stereo partly shown) : what is it?
Output: >500 µM

Task: Query (compound): `COC(=O)[C@H](CSC1=CC(=O)CC1)NC(=O)OC(C)(C)C` ; field requested: TD100 (dose or concentration at which the compound was 100% toxic to uninfected cells)
Output: >500 µM

Task: Look up TD100 (dose or concentration at which the compound was 100% toxic to uninfected cells): COC(=O)[C@H](CSC1C=CC(=O)C1)NC(=O)OC(C)(C)C (stereo partly shown)
Output: 500 µM

Task: Name the recorded TD100 (dose or concentration at which the compound was 100% toxic to uninfected cells) for CC(C)(C)C(=O)OC1[C@H](Sc2ccc3ccccc3c2)CC(=O)C1(C)C (stereo in doubt) .
Output: 50 µM

Task: State the recorded TD100 (dose or concentration at which the compound was 100% toxic to uninfected cells) for this entry: CC(C)(C)C(=O)OC1[C@@H](Sc2ccc3ccccc3c2)CC(=O)C1(C)C (stereo in doubt)
Output: 50 µM

====

assay-summary: in vitro
Type: cell-based
assay-setup: 37RC cells, 24 h treatment; read-out: LC50 (50% lethal dose/concentration), Neutral Red
test-readout: CC50 at 24 h (µM)
Supply the numeric figure in µM, leaving out any unit text.

Task: I'd like to know its CC50 at 24 h. The compound in question is `COC(=O)[C@H](CS[C@H]1CC(=O)CC[C@@H]1O[Si](C)(C)C(C)(C)C)NC(=O)OC(C)(C)C`
Output: 9.8

Task: Item `COC(=O)CS[C@H]1CC(=O)C[C@@H]1O[Si](C)(C)C(C)(C)C` has what recorded CC50 at 24 h?
Output: 38

Task: Item under review: CC(S[C@H]1CC(=O)C[C@@H]1O[Si](C)(C)C(C)(C)C)C(=O)NCC(=O)O (stereo partly shown) . Reported CC50 at 24 h?
Output: 18

Task: Please report the recorded CC50 at 24 h for `Cc1ccc(S[C@H]2CC(=O)C[C@@H]2O[Si](C)(C)C(C)(C)C)cc1` .
Output: 16

Task: // CC50 at 24 h lookup, key: `CC(C)(C)[Si](C)(C)O[C@H]1CC(=O)C[C@@H]1Sc1ccc(F)cc1`
Output: 29

Task: Dear colleague, I am looking for the recorded CC50 at 24 h of the following compound: `CC(C)(C)OC(=O)N[C@@H](CS[C@H]1CC(=O)C[C@@H]1O[Si](C)(C)C(C)(C)C)C(=O)O`
Output: 14

Task: # query: CC50 at 24 h of entry C[C@@H](CS[C@H]1CC(=O)C[C@@H]1O[Si](C)(C)C(C)(C)C)C(=O)N1CCCC1C(=O)O (stereo partly shown)
Output: 54

Task: Fill in the blank: the reported CC50 at 24 h of `COc1ccc(S[C@H]2CC(=O)C[C@@H]2O[Si](C)(C)C(C)(C)C)cc1` is ____.
Output: 22

Task: Sample `CC(=O)Nc1ccc(S[C@H]2CC(=O)C[C@@H]2O[Si](C)(C)C(C)(C)C)cc1` — what was its CC50 at 24 h?
Output: 17

Task: Returns the measured CC50 at 24 h for the input compound. Input: `CC(C)(C)[Si](C)(C)O[C@H]1CC(=O)C[C@@H]1Sc1ncccn1`
Output: 6.3

Task: Any idea what CC50 at 24 h was measured for `COC(=O)CCS[C@H]1CC(=O)C[C@@H]1O[Si](C)(C)C(C)(C)C` ?
Output: 45

Task: Tell me the measured CC50 at 24 h of `CC(=O)N[C@@H](CS[C@H]1CC(=O)C[C@@H]1O[Si](C)(C)C(C)(C)C)C(=O)OC(C)(C)C` , please.
Output: 28

Task: Name the recorded CC50 at 24 h for `CC(=O)NCCS[C@H]1CC(=O)C[C@@H]1O[Si](C)(C)C(C)(C)C` .
Output: 27

Task: Record request: CC50 at 24 h value, item COC(=O)C(CSC1CC(=O)CC(O[Si](C)(C)C(C)(C)C)C1)NC(=O)OC(C)(C)C (stereo not shown)
Output: 18.6

Task: // returns reported CC50 at 24 h for input CC(C)(C)C(=O)OC1[C@@H](Sc2ccc3ccccc3c2)CC(=O)C1(C)C (stereo in doubt)
Output: 24

Task: Any idea what CC50 at 24 h was measured for `CCOC(=O)[C@H](CS[C@H]1CC(=O)C[C@@H]1O[Si](C)(C)C(C)(C)C)NC(=O)OC(C)(C)C` ?
Output: 25

Task: Data request, read-out CC50 at 24 h, for `CC(C)(C)[Si](C)(C)O[C@H]1CC(=O)C[C@@H]1Sc1ccccn1`
Output: 7

Task: Which CC50 at 24 h is reported for this compound? `CC(C)(C)OC(=O)N[C@@H](CS[C@H]1CC(=O)C[C@@H]1O[Si](C)(C)C(C)(C)C)C(=O)OC(C)(C)C`
Output: 28

Task: # input compound: `COC(=O)c1ccccc1S[C@H]1CC(=O)C[C@@H]1O[Si](C)(C)C(C)(C)C` ; wanted: its CC50 at 24 h
Output: 16

Task: Look up CC50 at 24 h for this compound: `CCOC(=O)[C@H](CS[C@H]1CC(=O)C[C@@H]1O[Si](C)(C)C(C)(C)C)NC(C)=O`
Output: 125

Task: Can you share its CC50 at 24 h? I mean this compound: `CC(C)(C)[Si](C)(C)O[C@H]1CC(=O)C[C@@H]1Sc1ccncc1`
Output: 2.6

Task: So what does the record say about CC50 at 24 h for `CC(=O)N[C@@H](CS[C@H]1CC(=O)C[C@@H]1O[Si](C)(C)C(C)(C)C)C(=O)O` ?
Output: 228

Task: GET /values?readout=CC50 at 24 h&item= `CC(C)(C)[Si](C)(C)O[C@H]1CC(=O)C[C@@H]1SCCS(=O)(=O)O`
Output: 21

Task: Which CC50 at 24 h is reported for this compound? CC(C)(C)C(=O)OC1[C@H](Sc2ccc3ccccc3c2)CC(=O)C1(C)C (stereo in doubt)
Output: 23

Task: // query CC50 at 24 h value for entry `Cc1cc(C)n(CCS[C@H]2CC(=O)C[C@@H]2O[Si](C)(C)C(C)(C)C)n1`
Output: 33

====

Tested on: NF-κB
assay-summary: NF-κB-dependent luciferase reporter gene assay, HeLa κB-transformed cells, TPA stimulated
Type: cell-based
assay-setup: Homo sapiens, HeLa, 8 h treatment, TPA 25 ng/ml 2 h after exposure, read-out: NF-κB, IC50 (concentration at which the compound halved the NF-κB activity)
One threshold, 40 µM, splits the recorded IC50 values: lower ones are fulfilled, equal or higher ones are not fulfilled.

Task: Find out if reported IC50 for `CC(C)(C)[Si](C)(C)O[C@H]1CC(=O)C[C@@H]1Sc1ccncc1` is less than 40 µM
Output: fulfilled

Task: Confirm or reject: IC50 of `CC(C)(C)[Si](C)(C)O[C@H]1CC(=O)C[C@@H]1Sc1ccccn1` lies strictly below 40 µM
Output: fulfilled

Task: Is it true that IC50 reported for `COC(=O)c1ccccc1S[C@H]1CC(=O)C[C@@H]1O[Si](C)(C)C(C)(C)C` is less than 40 µM?
Output: not fulfilled

Task: Does `CC(C)(C)[Si](C)(C)O[C@H]1CC(=O)C[C@@H]1Sc1ncccn1` have IC50 strictly under 40 µM?
Output: fulfilled

Task: Answer whether the compound `CC(C)(C)[Si](C)(C)O[C@H]1CC(=O)C[C@@H]1SCCS(=O)(=O)O` has IC50 strictly less than 40 µM
Output: not fulfilled

Measured values drawn from patent US7759399B2 for this set.
